Biological target: GST-NbGlk1(82-244) (Nicotiana benthamiana)
Chain: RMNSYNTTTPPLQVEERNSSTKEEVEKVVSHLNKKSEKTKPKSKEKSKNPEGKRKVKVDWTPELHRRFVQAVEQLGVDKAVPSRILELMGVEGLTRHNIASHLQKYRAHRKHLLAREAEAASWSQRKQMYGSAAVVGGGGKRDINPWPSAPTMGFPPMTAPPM
Assay: protein-binding microarray; NbGlk1 is a Golden2-like transcription factor of Nicotiana benthamiana; high values mean tight binding
Conditions: protein: recombinant; tags: GST (pTH6838); dsDNA, one strand shown
In all, about 16,000 sequences were measured (“e-score”: median about -0.044, highest 2% from about 0.38 on). The list comes from a sample in which the highest values are over-represented; it also holds close analogues and randomly drawn sequences.
Metric Name: binding signal (E-score)
Give the value in E-score but do not write E-score after it.

ATTTCACA: 0.304
ATTCCGGA: 0.232
AAGATCAG: 0.222
ATACGCGC: 0.223
AATCCGGC: 0.388
AATCCGGG: 0.368
ATCTGAAT: 0.319
ATCCTCGC: 0.205
AATCCGTC: 0.39
AAGGTAAT: 0.217

Prompt line: Please give the documented binding signal of ATCCACAA
Response line: 0.29

Prompt line: Specify reported binding signal for the sequence shown: ATCCGCGC
Response line: 0.215

Prompt line: Return value of binding signal for input AATCTTGA , no commentary.
Response line: 0.377

Prompt line: Consider the sequence ATTCTTGG and give its recorded binding signal.
Response line: 0.242

Prompt line: Check the records and state binding signal for ATCTATAG
Response line: 0.288

Prompt line: Indicate the recorded binding signal value for this sequence: ATACTGTA
Response line: 0.274

Prompt line: Give a short answer stating reported binding signal for ATAAAGAT .
Response line: 0.279

Prompt line: Answer with reported binding signal of ACTAAGAT
Response line: 0.231

Prompt line: State its binding signal for this sequence: AAGCGAAT
Response line: 0.291

Prompt line: Assign binding signal to the following record: ATTTCATC
Response line: 0.269

Prompt line: Give the reported binding signal for this sequence. ATCTAGAT
Response line: 0.398

Prompt line: Return reported binding signal. Input sequence: ATTGCGTA
Response line: 0.367
